Protocol Text: in vivo
Run Parameters: rat, sc
Parameter: LD50 at 168 h. Scope: all listed entries.

Quick note, LD50 at 168 h for CCCCCCCCCCSCCN1CCCC1=O landed at > 5000 mg/kg

Short answer for CCCCCCCOCCCCN1CCCCCC1=O : LD50 at 168 h was > 5000 mg/kg

The reported value for CCCCCCCCCCCCN1CCCCCC1=O [Azone, 1-n-dodecylazacycloheptane-2-one, reference compound] in terms of LD50 at 168 h is > 5000 mg/kg

Data point: CCCCCCCCCCOCCN1CCCC1=O ; LD50 at 168 h = > 5000 mg/kg

Recorded result, CN1CCCC1=O [1-methyl-2-pyrolidone, 1-methyl-2-pyrrolidone, reference compound] , LD50 at 168 h: 2000 to 5000 mg/kg

Entry under test: CCCCCCCSCCCCN1CCCCCC1=O . Its LD50 at 168 h was > 5000 mg/kg
